The measurements presented in this section are drawn from patent US20240272170A1.

Molecular target: T1, HA peptide (XAKLDEESILKQK-FITC, X = H)
T1 construct: also called peptide with N-terminal histidine
T1 peptide: HAKLDEESILKQK(FITC)
Experiment: fluorescence polarization titration, 20 C
No end group written: not given here. *: point of attachment. FITC = O=C1OC2(c3ccc(O)cc3Oc3cc(O)ccc32)c2ccc(NC(=S)*)cc21
quantity measured: Kd (µM)
Could you give me the number in µM? Just the number is fine.

// Kd value for PS1115 (designed binder, PS621 variant) MHSKFSHAGRICGAKFKVGEPIYRCKECSFDDTCVLCVNCFNPKDHRGHHVYTTICTERNNGICDCGDKEAWNHELFCKAEEG : 1.92

binder PS1118 (designed binder, Variant of PS621) MHSKFSHAGRICGAKFKVGEPIYRCKECSFDDTCVLCVNCFNPKDHTGHHVYTTICTKFNNGICDCGDKEAWNHTLFCKAEEG , Kd observed: 6.18

Note to self: Kd recorded for PS1119 (designed binder, Variant of PS621) MHSKFSHAGRICGAKFKVGEPIYRCKECSFDDTCVLCVNCFNPKDHTGHHVYTTICKEFNNGICDCGDKEAWNHTLFCKAEEG was 11.4

Kd measured on PS1114 (designed binder, PS621 variant) MHSKFSHAGRICGAKFKVGEPIYRCKECSFDDTCVLCVNCFNPKDHRGHHVYTTICTERNNGICDCGDKEAWNHTLFCKAEEG = 2.66
